# system-name: CYP2D6 (Homo sapiens, UniProt P10635)
# Sequence (P10635 whole entry): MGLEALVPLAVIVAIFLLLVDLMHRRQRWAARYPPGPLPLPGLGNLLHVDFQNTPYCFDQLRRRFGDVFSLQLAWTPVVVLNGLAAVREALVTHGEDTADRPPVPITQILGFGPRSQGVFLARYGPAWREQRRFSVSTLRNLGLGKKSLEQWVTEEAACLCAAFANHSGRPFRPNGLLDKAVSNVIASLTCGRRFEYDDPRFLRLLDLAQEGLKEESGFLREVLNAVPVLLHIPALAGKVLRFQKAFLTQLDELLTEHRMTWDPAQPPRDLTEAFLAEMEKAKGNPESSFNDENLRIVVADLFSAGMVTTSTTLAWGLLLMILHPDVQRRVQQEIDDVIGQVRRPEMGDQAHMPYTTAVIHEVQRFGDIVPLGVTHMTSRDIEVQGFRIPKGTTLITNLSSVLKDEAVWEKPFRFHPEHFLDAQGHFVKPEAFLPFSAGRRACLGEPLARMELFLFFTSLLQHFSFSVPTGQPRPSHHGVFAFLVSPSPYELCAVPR
# run-description: Inhibition of CYP2D6 (unknown origin) assessed as residual activity at 10 uM using beetle D-luciferin as substrate by CYP450-Glo assay relative to control
# Assay type: ADME
# test-context: CYP2D6 enzyme (unknown origin), probe beetle D-luciferin, read-out: Activity
// activity at 10 µM lookup, one value per entry
property-measured: activity at 10 µM (%)

[[record]]
molecule = "CCn1cncc1-c1c[nH]c2ccc(C(N)=O)cc12"
system_name = "CYP2D6 (Homo sapiens, UniProt P10635)"
recorded_result = 43.4

[[record]]
molecule = "Cn1cncc1-c1c[nH]c2ccc(C(N)=O)cc12"
system_name = "CYP2D6 (Homo sapiens, UniProt P10635)"
recorded_result = 55

[[record]]
molecule = "NCCc1c[nH]c2ccc(C(N)=O)cc12"
system_name = "CYP2D6 (Homo sapiens, UniProt P10635)"
recorded_result = 108


###

# system-name: 5-hydroxytryptamine receptor 6 (Homo sapiens, UniProt P50406)
# Sequence (P50406 whole entry): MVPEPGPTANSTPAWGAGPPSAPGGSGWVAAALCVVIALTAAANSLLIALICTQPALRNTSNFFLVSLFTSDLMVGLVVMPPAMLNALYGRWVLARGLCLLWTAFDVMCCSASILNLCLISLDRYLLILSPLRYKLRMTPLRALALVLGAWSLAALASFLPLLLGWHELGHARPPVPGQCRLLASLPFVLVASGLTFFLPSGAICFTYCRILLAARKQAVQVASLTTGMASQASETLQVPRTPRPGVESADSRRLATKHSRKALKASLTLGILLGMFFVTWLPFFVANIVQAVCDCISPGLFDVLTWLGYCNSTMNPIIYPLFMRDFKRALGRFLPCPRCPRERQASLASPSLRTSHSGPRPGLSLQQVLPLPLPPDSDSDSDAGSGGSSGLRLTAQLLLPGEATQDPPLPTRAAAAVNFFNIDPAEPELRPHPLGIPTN
# run-description: Displacement of [3H]LSD from human recombinant 5-HT6 receptor after 120 mins by scintillation counting analysis
pKi: −log10 of the molar value.
property-measured: pKi

[[record]]
molecule = "Cc1nn(C)c(C)c1-c1cccc(CCN(C)C)c1"
system_name = "5-hydroxytryptamine receptor 6 (Homo sapiens, UniProt P50406)"
property_measured = "pKi"
recorded_result = "< 6.00"


###

# system-name: 5-hydroxytryptamine receptor 6 (Homo sapiens, UniProt P50406)
# run-description: Displacement of [3H]LSD from human recombinant 5-HT6 receptor expressed in cell membrane after 1.5 hrs by scintillation counting analysis
# Format: cell membranes
property-measured: Ki (µM)

[[record]]
molecule = "c1ccc(-c2ccccc2N2CCNCC2)cc1"
quantity_unit = "µM"
recorded_result = 0.596


###

# system-name: 5-hydroxytryptamine receptor 2A (Homo sapiens)
# Sequence (P28223 whole entry): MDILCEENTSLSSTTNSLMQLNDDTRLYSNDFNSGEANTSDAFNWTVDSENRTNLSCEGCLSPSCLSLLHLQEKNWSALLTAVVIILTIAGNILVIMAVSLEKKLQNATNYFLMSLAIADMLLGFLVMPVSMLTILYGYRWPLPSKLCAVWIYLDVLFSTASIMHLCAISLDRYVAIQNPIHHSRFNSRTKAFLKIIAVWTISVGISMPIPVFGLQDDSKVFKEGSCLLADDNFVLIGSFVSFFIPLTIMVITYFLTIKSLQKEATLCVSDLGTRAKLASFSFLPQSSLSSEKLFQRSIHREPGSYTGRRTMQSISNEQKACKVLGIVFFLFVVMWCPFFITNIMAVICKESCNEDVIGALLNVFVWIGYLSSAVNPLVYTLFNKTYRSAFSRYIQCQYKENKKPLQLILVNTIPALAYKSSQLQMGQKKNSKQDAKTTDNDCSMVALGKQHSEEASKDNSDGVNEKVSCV
# run-description: Displacement of [3H]ketanserin from recombinant human 5-HT2A receptor after 60 mins by scintillation counting analysis
property-measured: Ki

[[record]]
molecule = "Cc1nn(C)c(C)c1-c1cccc(CCN(C)C)c1"
system_name = "5-hydroxytryptamine receptor 2A (Homo sapiens)"
property_measured = "Ki"
recorded_result = "> 1000 nM"


###

We begin with a simple list: items and their reported Ki.
# system-name: 5-hydroxytryptamine receptor 6 (Homo sapiens)
# run-description: Displacement of [3H]-LSD from recombinant human 5HT6 receptor expressed in HEK293 cells measured after 1 hr by microbeta counting method
# Type: cell-based
property-measured: Ki (µM)

[[record]]
molecule = "CCn1cncc1-c1c[nH]c2ccc(C(=O)OC)cc12"
system_name = "5-hydroxytryptamine receptor 6 (Homo sapiens)"
property_measured = "Ki"
reported_relation = "="
recorded_result = 6.06

[[record]]
molecule = "Cn1cncc1-c1c[nH]c2ccc(C(N)=O)cc12"
system_name = "5-hydroxytryptamine receptor 6 (Homo sapiens)"
property_measured = "Ki"
reported_relation = "="
recorded_result = 6.91

[[record]]
molecule = "CCn1cncc1-c1c[nH]c2ccc(I)cc12"
system_name = "5-hydroxytryptamine receptor 6 (Homo sapiens)"
property_measured = "Ki"
reported_relation = "="
recorded_result = 1.67

[[record]]
molecule = "CCn1cncc1-c1c[nH]c2ccc(C(N)=O)cc12"
system_name = "5-hydroxytryptamine receptor 6 (Homo sapiens)"
property_measured = "Ki"
reported_relation = ">"
recorded_result = 10

[[record]]
molecule = "CCn1cncc1-c1c[nH]c2ccc(S(N)(=O)=O)cc12"
system_name = "5-hydroxytryptamine receptor 6 (Homo sapiens)"
property_measured = "Ki"
reported_relation = "="
recorded_result = 7.27


###

# system-name: 5-hydroxytryptamine receptor 1A (Homo sapiens, UniProt P08908)
# Sequence (P08908 whole entry): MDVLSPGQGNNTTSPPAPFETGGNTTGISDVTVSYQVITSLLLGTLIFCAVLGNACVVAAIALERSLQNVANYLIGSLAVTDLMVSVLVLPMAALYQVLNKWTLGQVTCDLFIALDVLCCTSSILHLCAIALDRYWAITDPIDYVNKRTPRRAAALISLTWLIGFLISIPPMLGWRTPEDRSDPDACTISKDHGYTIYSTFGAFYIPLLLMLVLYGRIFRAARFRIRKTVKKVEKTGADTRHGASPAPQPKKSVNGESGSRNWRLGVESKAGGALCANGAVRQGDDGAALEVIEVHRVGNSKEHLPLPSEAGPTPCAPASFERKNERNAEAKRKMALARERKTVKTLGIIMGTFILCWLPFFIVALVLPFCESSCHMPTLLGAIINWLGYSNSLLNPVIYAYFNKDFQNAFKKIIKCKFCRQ
# run-description: Displacement of [3H]-8-OH-DPAT from recombinant human 5HT1A receptor expressed in HEK293 cells measured after 1 hr by microbeta counting method
# Type: cell-based
property-measured: Ki

[[record]]
molecule = "CCn1cncc1-c1c[nH]c2ccc(C(=O)OC)cc12"
recorded_result = "> 10 µM"

[[record]]
molecule = "Cn1cncc1-c1c[nH]c2ccc(C(N)=O)cc12"
recorded_result = "0.22 µM"

[[record]]
molecule = "CCn1cncc1-c1c[nH]c2ccc(S(N)(=O)=O)cc12"
recorded_result = "> 10 µM"


###

Measured Ki accompanies every entry in the list below.
# system-name: D(2) dopamine receptor (Homo sapiens, UniProt P14416)
# Sequence (P14416 whole entry): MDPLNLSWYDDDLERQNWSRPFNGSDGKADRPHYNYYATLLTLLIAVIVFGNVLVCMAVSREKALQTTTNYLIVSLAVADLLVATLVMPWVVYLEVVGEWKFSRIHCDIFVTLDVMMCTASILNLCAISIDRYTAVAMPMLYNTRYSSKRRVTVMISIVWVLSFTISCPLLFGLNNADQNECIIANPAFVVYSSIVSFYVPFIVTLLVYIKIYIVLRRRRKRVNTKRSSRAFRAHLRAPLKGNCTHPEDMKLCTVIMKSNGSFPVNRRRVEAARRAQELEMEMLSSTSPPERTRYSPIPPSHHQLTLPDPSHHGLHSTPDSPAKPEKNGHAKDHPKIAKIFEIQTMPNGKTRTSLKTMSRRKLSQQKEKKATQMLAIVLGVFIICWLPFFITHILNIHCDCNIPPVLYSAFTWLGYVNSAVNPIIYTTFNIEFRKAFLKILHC
# run-description: Displacement of [3H]-raclopride from recombinant human D2LR receptor expressed in HEK293 cells measured after 1 hr by microbeta counting method
# Format: cell-based
property-measured: Ki (µM)

[[record]]
molecule = "CCn1cncc1-c1c[nH]c2ccc(S(N)(=O)=O)cc12"
property_measured = "Ki"
reported_relation = ">"
recorded_result = 10

[[record]]
molecule = "Cn1cncc1-c1c[nH]c2ccc(C(N)=O)cc12"
property_measured = "Ki"
reported_relation = "="
recorded_result = 5.56

[[record]]
molecule = "CCn1cncc1-c1c[nH]c2ccc(C(N)=O)cc12"
property_measured = "Ki"
reported_relation = ">"
recorded_result = 10

[[record]]
molecule = "CCn1cncc1-c1c[nH]c2ccc(C(=O)OC)cc12"
property_measured = "Ki"
reported_relation = ">"
recorded_result = 10

[[record]]
molecule = "CCn1cncc1-c1c[nH]c2ccc(I)cc12"
property_measured = "Ki"
reported_relation = "="
recorded_result = 4.85


###

# system-name: 5-hydroxytryptamine receptor 5A (Homo sapiens)
# Sequence (P47898 whole entry): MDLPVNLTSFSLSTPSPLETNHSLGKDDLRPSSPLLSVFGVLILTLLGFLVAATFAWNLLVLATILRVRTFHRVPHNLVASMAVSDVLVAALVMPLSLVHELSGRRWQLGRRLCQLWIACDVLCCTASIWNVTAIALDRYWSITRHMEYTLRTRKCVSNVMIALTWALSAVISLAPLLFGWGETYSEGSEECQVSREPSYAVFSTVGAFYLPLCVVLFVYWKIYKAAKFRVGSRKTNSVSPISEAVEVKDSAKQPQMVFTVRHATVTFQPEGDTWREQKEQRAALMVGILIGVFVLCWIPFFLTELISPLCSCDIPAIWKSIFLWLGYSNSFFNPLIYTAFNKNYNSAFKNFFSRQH
# run-description: Displacement of [3H]LSD from human recombinant 5-HT5A receptor expressed in cell membrane after 1.5 hrs by scintillation counting analysis
property-measured: Ki (nM)

[[record]]
molecule = "c1ccc(-c2ccccc2N2CCNCC2)cc1"
recorded_result = 76

[[record]]
molecule = "N#Cc1ccc(CNC(=O)CCCCCN2CCN(c3ccccc3-c3ccccc3)CC2)cc1"
recorded_result = 178


###

# system-name: 5-hydroxytryptamine receptor 7 (Homo sapiens)
# Sequence (P34969 whole entry): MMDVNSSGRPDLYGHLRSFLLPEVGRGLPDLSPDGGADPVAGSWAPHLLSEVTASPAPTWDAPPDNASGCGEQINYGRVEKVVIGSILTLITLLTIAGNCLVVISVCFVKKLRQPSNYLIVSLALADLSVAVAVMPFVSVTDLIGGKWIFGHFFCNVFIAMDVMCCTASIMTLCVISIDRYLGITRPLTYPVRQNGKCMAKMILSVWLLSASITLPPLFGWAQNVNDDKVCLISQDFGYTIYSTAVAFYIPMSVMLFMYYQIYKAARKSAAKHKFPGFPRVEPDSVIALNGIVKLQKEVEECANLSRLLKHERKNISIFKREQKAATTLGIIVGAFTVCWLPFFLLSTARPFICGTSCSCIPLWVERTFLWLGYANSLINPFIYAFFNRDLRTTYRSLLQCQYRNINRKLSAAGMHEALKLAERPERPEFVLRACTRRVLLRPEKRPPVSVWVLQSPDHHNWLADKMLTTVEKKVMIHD
# run-description: Displacement of [3H]-5-CT from recombinant human 5HT7b receptor expressed in HEK293 cells measured after 1 hr by microbeta counting method
property-measured: Ki (nM)

[[record]]
molecule = "Cn1cncc1-c1c[nH]c2ccc(C(N)=O)cc12"
system_name = "5-hydroxytryptamine receptor 7 (Homo sapiens)"
property_measured = "Ki"
recorded_result = 6

[[record]]
molecule = "CCn1cncc1-c1c[nH]c2ccc(S(N)(=O)=O)cc12"
system_name = "5-hydroxytryptamine receptor 7 (Homo sapiens)"
property_measured = "Ki"
recorded_result = 6420

[[record]]
molecule = "CCn1cncc1-c1c[nH]c2ccc(C(=O)OC)cc12"
system_name = "5-hydroxytryptamine receptor 7 (Homo sapiens)"
property_measured = "Ki"
recorded_result = 161


###

# system-name: P-glycoprotein (ABCB1) (Homo sapiens, UniProt P08183)
# Sequence (P08183 whole entry): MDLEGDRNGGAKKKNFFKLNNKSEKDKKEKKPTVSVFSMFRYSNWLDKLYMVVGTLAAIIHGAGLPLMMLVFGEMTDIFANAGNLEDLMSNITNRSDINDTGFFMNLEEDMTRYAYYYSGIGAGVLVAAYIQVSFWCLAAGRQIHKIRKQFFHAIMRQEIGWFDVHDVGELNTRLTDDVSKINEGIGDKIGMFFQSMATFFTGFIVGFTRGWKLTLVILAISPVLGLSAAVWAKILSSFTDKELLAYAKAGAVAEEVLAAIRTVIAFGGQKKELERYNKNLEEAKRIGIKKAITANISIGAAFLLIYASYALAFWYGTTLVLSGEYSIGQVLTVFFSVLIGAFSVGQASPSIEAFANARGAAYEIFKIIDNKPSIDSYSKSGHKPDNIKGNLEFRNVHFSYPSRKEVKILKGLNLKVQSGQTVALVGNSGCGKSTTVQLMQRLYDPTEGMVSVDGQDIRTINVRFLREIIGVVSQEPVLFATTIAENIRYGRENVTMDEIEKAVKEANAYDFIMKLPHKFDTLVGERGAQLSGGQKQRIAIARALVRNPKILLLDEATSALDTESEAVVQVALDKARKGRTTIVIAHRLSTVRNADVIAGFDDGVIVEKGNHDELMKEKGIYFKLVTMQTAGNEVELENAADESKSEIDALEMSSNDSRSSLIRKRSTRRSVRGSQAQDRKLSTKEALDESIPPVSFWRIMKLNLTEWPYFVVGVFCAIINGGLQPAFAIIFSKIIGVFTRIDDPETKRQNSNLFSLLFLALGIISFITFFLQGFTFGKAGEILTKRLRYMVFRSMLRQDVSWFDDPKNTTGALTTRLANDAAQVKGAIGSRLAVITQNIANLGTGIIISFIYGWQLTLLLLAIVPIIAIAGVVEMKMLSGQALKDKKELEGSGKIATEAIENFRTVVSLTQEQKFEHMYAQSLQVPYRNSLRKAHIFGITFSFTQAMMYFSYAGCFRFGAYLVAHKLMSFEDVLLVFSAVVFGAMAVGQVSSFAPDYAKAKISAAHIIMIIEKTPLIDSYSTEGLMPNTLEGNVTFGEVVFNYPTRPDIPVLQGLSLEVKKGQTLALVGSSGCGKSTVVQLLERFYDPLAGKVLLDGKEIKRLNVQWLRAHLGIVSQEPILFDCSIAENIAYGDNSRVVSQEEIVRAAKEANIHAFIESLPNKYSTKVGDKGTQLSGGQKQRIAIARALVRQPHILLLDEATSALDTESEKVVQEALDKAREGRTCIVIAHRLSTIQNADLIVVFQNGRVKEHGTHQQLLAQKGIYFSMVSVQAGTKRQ
# run-description: Inhibition of recombinant human membrane bound Pgp assessed as basal ATP consumption at 100 uM after 40 mins by Pgp-Glo luminescence assay relative to control
# Design: scale not given: the % may be the effect or the level left
# test-context: read-out: Activity
property-measured: activity at 40 min, 100 µM (%)

[[record]]
molecule = "NCCc1c[nH]c2ccc(C(N)=O)cc12"
recorded_result = 26.3

[[record]]
molecule = "Cn1cncc1-c1c[nH]c2ccc(C(N)=O)cc12"
recorded_result = 60

[[record]]
molecule = "CCn1cncc1-c1c[nH]c2ccc(C(N)=O)cc12"
recorded_result = 19.3


###

# system-name: CYP3A4 (Homo sapiens)
# Sequence (P08684 whole entry): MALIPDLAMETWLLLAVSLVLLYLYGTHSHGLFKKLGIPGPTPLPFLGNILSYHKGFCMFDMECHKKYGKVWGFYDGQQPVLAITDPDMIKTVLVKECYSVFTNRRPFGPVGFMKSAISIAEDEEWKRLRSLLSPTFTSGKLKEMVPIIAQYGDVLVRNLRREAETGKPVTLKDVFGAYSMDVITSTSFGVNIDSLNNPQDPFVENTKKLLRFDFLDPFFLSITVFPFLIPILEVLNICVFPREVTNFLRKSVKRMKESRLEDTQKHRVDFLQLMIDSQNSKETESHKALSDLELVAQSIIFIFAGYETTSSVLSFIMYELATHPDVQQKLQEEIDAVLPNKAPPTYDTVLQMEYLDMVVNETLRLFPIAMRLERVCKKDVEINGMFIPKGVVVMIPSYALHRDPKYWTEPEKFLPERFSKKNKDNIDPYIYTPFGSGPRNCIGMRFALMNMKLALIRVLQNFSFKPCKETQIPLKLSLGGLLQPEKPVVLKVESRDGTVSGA
# run-description: Inhibition of CYP3A4 (unknown origin) assessed as residual activity at 10 uM using beetle D-luciferin as substrate by CYP450-Glo assay relative to control
# Assay type: ADME
# test-context: CYP3A4 enzyme (unknown origin), probe beetle D-luciferin, read-out: Activity
property-measured: activity at 10 µM (%)

[[record]]
molecule = "NCCc1c[nH]c2ccc(C(N)=O)cc12"
system_name = "CYP3A4 (Homo sapiens)"
recorded_result = 95.7

[[record]]
molecule = "Cn1cncc1-c1c[nH]c2ccc(C(N)=O)cc12"
system_name = "CYP3A4 (Homo sapiens)"
recorded_result = 29.4

[[record]]
molecule = "CCn1cncc1-c1c[nH]c2ccc(C(N)=O)cc12"
system_name = "CYP3A4 (Homo sapiens)"
recorded_result = 2.9

